- System: T1, CD30 on CD30-expressing tumor cell lines (HH, MJ, H9) (UniProt P28908 19-595)
- T1 sequence (looked up): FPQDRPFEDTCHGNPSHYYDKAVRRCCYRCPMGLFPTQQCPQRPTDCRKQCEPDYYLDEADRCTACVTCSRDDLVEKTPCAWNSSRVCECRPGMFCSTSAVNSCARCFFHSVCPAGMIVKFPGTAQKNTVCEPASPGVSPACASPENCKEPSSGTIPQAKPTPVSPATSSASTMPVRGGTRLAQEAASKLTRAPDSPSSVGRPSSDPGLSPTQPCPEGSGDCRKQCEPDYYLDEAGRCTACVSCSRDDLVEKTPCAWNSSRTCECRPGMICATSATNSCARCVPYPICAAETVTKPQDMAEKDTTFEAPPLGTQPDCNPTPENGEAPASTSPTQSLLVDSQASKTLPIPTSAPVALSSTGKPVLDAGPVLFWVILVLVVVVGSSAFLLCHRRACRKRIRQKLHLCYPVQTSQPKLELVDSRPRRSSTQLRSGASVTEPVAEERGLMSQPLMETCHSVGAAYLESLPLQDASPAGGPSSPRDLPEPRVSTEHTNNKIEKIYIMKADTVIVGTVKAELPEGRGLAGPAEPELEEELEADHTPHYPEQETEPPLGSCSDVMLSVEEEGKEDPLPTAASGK
- Method Summary: cell-based or functional assay
Metric Name: % H9 cell lysis E:T = 2:1 (LDH assay, CAR T cells) (%)
One number for each entry, in %.

AS48463VH4bbz CAR (other) EVQLLESGGGLVQPGGSLRLSCAASGFTFANSDMGWYRQAPGKGCELVSIISSHGGTTYYVDSVKGRFTISRDNSKNTLYLQMNSLRAEDTAVYYCVADPRSNCRGGYCCGYWGQGTLVTVSSTTTPAPRPPTPAPTIASQPLSLRPEACRPAAGGAVHTRGLDFACDIYIWAPLAGTCGVLLLSLVITLYCKRGRKKLLYIFKQPFMRPVQTTQEEDGCSCRFPEEEEGGCELRVKFSRSADAPAYKQGQNQLYNELNLGRREEYDVLDKRRGRDPEMGGKPRRKNPQEGLYNELQKDKMAEAYSEIGMKGERRRGKGHDGLYQGLSTATKDTYDALHMQALPPR
64

Parameters: items (list). Returns: % H9 cell lysis E:T = 2:1 (LDH assay, CAR T cells) for each item.
1. AS48542VH5bbz CAR (other) EVQLVESGGGLVQPGGSLRLSCATSAFTFDGPDMAWYRQAPGKGCELVSIISADGRTYYADSVKGRFTISRDNSKNTVYLQMNSLRAEDTAVYYCALDPRKNCRGGYCCANWGQGTLVTVSSTTTPAPRPPTPAPTIASQPLSLRPEACRPAAGGAVHTRGLDFACDIYIWAPLAGTCGVLLLSLVITLYCKRGRKKLLYIFKQPFMRPVQTTQEEDGCSCRFPEEEEGGCELRVKFSRSADAPAYKQGQNQLYNELNLGRREEYDVLDKRRGRDPEMGGKPRRKNPQEGLYNELQKDKMAEAYSEIGMKGERRRGKGHDGLYQGLSTATKDTYDALHMQALPPR
2. AS47863VH4bbz CAR (other) EVQLVESGGGLVQPGGSLRLSCAASGSTFGDSDMGWYRQAPGKGCELVSIISSDGRTYYVDSVKGRFTISQDNSKNTLYLQMNSLRAEDTAVYYCAADLRQYCRDGRCCGYWGQGTLVTVSSTTTPAPRPPTPAPTIASQPLSLRPEACRPAAGGAVHTRGLDFACDIYIWAPLAGTCGVLLLSLVITLYCKRGRKKLLYIFKQPFMRPVQTTQEEDGCSCRFPEEEEGGCELRVKFSRSADAPAYKQGQNQLYNELNLGRREEYDVLDKRRGRDPEMGGKPRRKNPQEGLYNELQKDKMAEAYSEIGMKGERRRGKGHDGLYQGLSTATKDTYDALHMQALPPR

Reply text:
62
63
